ASSAY: Oxidative metabolic stability in rat liver microsomes assessed as compound remaining at 1 uM after 30 mins
Format: ADME, Microsome
ASSAY_CONTEXT: read-out: Stability
ENDPOINT_NAME: remaining at 0.5 h, 1 µM (%)

Example entries begin here.
TEST_SMILES: O=C(Cn1c(=O)ccc2cc(C(F)(F)F)ccc21)Nc1scc(Br)c1-c1ncn[nH]1
remaining at 0.5 h, 1 µM [%]: 35
--
TEST_SMILES: N#Cc1ccc2c(ccc(=O)n2CC(=O)Nc2scc(Br)c2-c2ncn[nH]2)c1
remaining at 0.5 h, 1 µM [%]: 46
--
TEST_SMILES: O=C(Cn1c(=O)ccc2cc(F)c(F)cc21)Nc1scc(Br)c1-c1ncn[nH]1
remaining at 0.5 h, 1 µM [%]: 9
--
TEST_SMILES: O=C(Cn1c(=O)ccn2nc(C(F)(F)F)cc12)Nc1scc(Br)c1-c1ncn[nH]1
remaining at 0.5 h, 1 µM [%]: 42
--
TEST_SMILES: O=C(Cc1cccc2cnccc12)Nc1scc(Cl)c1-c1ncn[nH]1
remaining at 0.5 h, 1 µM [%]: 9

P. N#Cc1csc(NC(=O)CN2C(=O)CCc3ccccc32)c1-c1ncn[nH]1
Q. N#Cc1csc(NC(=O)Cn2c(=O)ccc3cc(C(F)(F)F)ccc32)c1-c1cscn1
Task: Out of P and Q , name the one with the higher remaining at 0.5 h, 1 µM. To answer, give the label that identifies your chosen option.
Result: Q

I. O=C(Cn1c(=O)ccc2ccc(C(F)(F)F)cc21)Nc1scc(Br)c1-c1ncn[nH]1
II. O=C(Cn1c(=O)ccc2c(C(F)(F)F)cccc21)Nc1scc(Br)c1-c1ncn[nH]1
Task: Out of I and II , name the one with the higher remaining at 0.5 h, 1 µM. To answer, give the label that identifies your chosen option.
Result: I

1. O=C(CN1C(=O)CCc2ncccc21)Nc1scc(Br)c1-c1nccs1
2. O=C(Cn1c(=O)ccc2ccc(OC(F)(F)F)cc21)Nc1scc(Br)c1-c1ncn[nH]1
3. O=C(Cc1cccc2ncc(F)cc12)Nc1scc(Br)c1-c1nc[nH]n1
4. O=C(Cn1c(=O)ccn2nccc12)Nc1scc(Br)c1-c1ncn[nH]1
5. O=C(Cn1c(=O)ccc2cnc(C(F)(F)F)cc21)Nc1scc(Br)c1-c1ncn[nH]1
Task: # ascending order, key=remaining at 0.5 h, 1 µM Answer by listing the labels in the requested order.
Result: 1, 3, 2, 5, 4

1. O=C(Cc1ccc(F)c2cnccc12)Nc1scc(Br)c1-c1ncn[nH]1
2. O=C(Cn1c(=O)ccc2cc(OC(F)(F)F)ccc21)Nc1scc(Br)c1-c1ncn[nH]1
3. O=C(Cc1cc(F)cc2ncccc12)Nc1scc(Br)c1-c1ncn[nH]1
4. O=C(CN1C(=O)CCc2ccccc21)Nc1scc(Br)c1-c1ncn[nH]1
5. O=C(Cn1c(=O)ccc2nc(C(F)(F)F)ccc21)Nc1scc(Br)c1-c1ncn[nH]1
Task: Arrange by remaining at 0.5 h, 1 µM, high to low. Answer by listing the labels in the requested order.
Result: 2, 3, 1, 5, 4

====

ASSAY: Oxidative metabolic stability in mouse liver microsomes assessed as compound remaining at 1 uM after 30 mins
Format: ADME, Microsome
ASSAY_CONTEXT: read-out: Stability
ENDPOINT_NAME: remaining at 0.5 h, 1 µM (%)

Example entries begin here.
TEST_SMILES: O=C(Cc1ccc(F)c2cnccc12)Nc1scc(Br)c1-c1ncn[nH]1
remaining at 0.5 h, 1 µM [%]: 34
//
TEST_SMILES: O=C(Cn1c(=O)ccc2cc(C(F)(F)F)ccc21)Nc1scc(Br)c1-c1ncn[nH]1
remaining at 0.5 h, 1 µM [%]: 58
//
TEST_SMILES: N#Cc1csc(NC(=O)Cn2c(=O)ccc3cc(C(F)(F)F)ccc32)c1-c1cscn1
remaining at 0.5 h, 1 µM [%]: 17
//
TEST_SMILES: N#Cc1csc(NC(=O)Cn2c(=O)ccc3cc(C(F)(F)F)ccc32)c1-c1ncco1
remaining at 0.5 h, 1 µM [%]: 4
//
TEST_SMILES: O=C(Cc1cc(C(F)(F)F)cc2ncccc12)Nc1scc(Br)c1-c1nnc[nH]1
remaining at 0.5 h, 1 µM [%]: 3

1. O=C(Cn1c(=O)ccc2cc(OC(F)(F)F)ccc21)Nc1scc(Br)c1-c1ncn[nH]1
2. O=C(Cn1c(=O)ccc2ccc(C(F)(F)F)cc21)Nc1scc(Br)c1-c1ncn[nH]1
Task: Out of 1 and 2 , name the one with the higher remaining at 0.5 h, 1 µM. To answer, give the label that identifies your chosen option.
Result: 2

====

ASSAY: Oxidative metabolic stability in mouse liver microsomes assessed as compound remaining at 1 uM after 30 mins
Type: ADME, Microsome
ASSAY_CONTEXT: read-out: Stability
ENDPOINT_NAME: remaining at 0.5 h, 1 µM (%)

TEST_SMILES: N#Cc1csc(NC(=O)Cn2c(=O)ccc3cc(C(F)(F)F)ccc32)c1-c1nccs1
remaining at 0.5 h, 1 µM [%]: 52

A. O=C(CN1C(=O)CCc2ncccc21)Nc1scc(Br)c1-c1ncn[nH]1
B. O=C(CN1C(=O)CCc2ncccc21)Nc1scc(Br)c1-c1nccs1
C. O=C(Cn1c(=O)ccn2nc(C(F)(F)F)cc12)Nc1scc(Br)c1-c1ncn[nH]1
D. O=C(Cn1c(=O)ccc2ccc(OC(F)(F)F)cc21)Nc1scc(Br)c1-c1ncn[nH]1
Task: # ascending order, key=remaining at 0.5 h, 1 µM Answer by listing the labels in the requested order.
Result: B, C, D, A
(B: 0%, C: 3%, D: 10%, A: 55%)

a. O=C(CN1C(=O)CCc2ccccc21)Nc1scc(Br)c1-c1ncn[nH]1
b. N#Cc1ccc2ccc(=O)n(CC(=O)Nc3scc(Br)c3-c3ncn[nH]3)c2c1
c. O=C(Cc1ccc(C(F)(F)F)c2ncccc12)Nc1scc(Cl)c1-c1ncn[nH]1
Task: # ascending order, key=remaining at 0.5 h, 1 µM Answer by listing the labels in the requested order.
Result: a, c, b

I. O=C(CN1C(=O)CCc2ncccc21)Nc1scc(Br)c1-c1ncco1
II. O=C(Cn1c(=O)ccc2cnc(C(F)(F)F)cc21)Nc1scc(Br)c1-c1ncn[nH]1
Task: Out of I and II , name the one with the higher remaining at 0.5 h, 1 µM. To answer, give the label that identifies your chosen option.
Result: II
(II: 43%, I: 0%)

====

ASSAY: Oxidative metabolic stability in human liver microsomes assessed as compound remaining at 1 uM after 30 mins
Type: ADME, Microsome
ASSAY_CONTEXT: read-out: Stability
ENDPOINT_NAME: remaining at 0.5 h, 1 µM (%)

Example entries begin here.
TEST_SMILES: O=C(Cc1cc(F)cc2ncccc12)Nc1scc(Br)c1-c1ncn[nH]1
MEASURED: 42

TEST_SMILES: O=C(Cn1c(=O)ccc2cc(F)c(F)cc21)Nc1scc(Br)c1-c1ncn[nH]1
MEASURED: 38

TEST_SMILES: O=C(Cc1cc(C(F)(F)F)cc2ncccc12)Nc1scc(Br)c1-c1nnc[nH]1
MEASURED: 31

TEST_SMILES: O=C(Cn1c(=O)ccc2cc(OC(F)(F)F)ccc21)Nc1scc(Br)c1-c1ncn[nH]1
MEASURED: 64

TEST_SMILES: O=C(Cc1cccc2ncc(C(F)(F)F)cc12)Nc1scc(Br)c1-c1nc[nH]n1
MEASURED: 37

A. N#Cc1csc(NC(=O)Cn2c(=O)ccc3cc(C(F)(F)F)ccc32)c1-c1ncco1
B. O=C(CN1C(=O)CCc2ncccc21)Nc1scc(Br)c1-c1ncn[nH]1
C. O=C(Cc1cccc2ncc(F)cc12)Nc1scc(Br)c1-c1nc[nH]n1
D. N#Cc1csc(NC(=O)CN2C(=O)CCc3ncccc32)c1-c1nccs1
E. O=C(CN1C(=O)CCc2ncccc21)Nc1scc(Br)c1-c1ncco1
Task: # ascending order, key=remaining at 0.5 h, 1 µM Answer by listing the labels in the requested order.
Result: E, D, A, C, B

====

EXPERIMENTAL_SYSTEM: Mitogen-activated protein kinase 10 (Homo sapiens)
Sequence (P53779 whole entry): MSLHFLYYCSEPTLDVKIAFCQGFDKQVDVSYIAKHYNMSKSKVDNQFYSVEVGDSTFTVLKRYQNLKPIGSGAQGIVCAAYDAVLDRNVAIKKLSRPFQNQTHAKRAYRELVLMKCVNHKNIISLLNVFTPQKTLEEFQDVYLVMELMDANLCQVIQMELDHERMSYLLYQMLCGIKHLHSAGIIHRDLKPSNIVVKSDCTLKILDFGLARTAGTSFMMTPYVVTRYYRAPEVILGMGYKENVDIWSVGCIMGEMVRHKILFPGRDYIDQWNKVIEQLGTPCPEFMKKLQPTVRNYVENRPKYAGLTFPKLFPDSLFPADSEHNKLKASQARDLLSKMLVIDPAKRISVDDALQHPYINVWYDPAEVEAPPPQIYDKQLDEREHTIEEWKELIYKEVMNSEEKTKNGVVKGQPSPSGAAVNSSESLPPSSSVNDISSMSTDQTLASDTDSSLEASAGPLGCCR
ASSAY: Inhibition of recombinant JNK3 using ser73 of c-jun as substrate preincubated for 15 mins measured after 60 mins by TR-FRET assay
pIC50: −log10 of the molar value.
ENDPOINT_NAME: pIC50

Example entries begin here.
TEST_SMILES: O=C(Cn1c(=O)ccc2cc(OC(F)(F)F)ccc21)Nc1scc(Br)c1-c1ncn[nH]1
pIC50: 8.22

TEST_SMILES: N#Cc1ccc2ccc(=O)n(CC(=O)Nc3scc(Br)c3-c3ncn[nH]3)c2c1
pIC50: 8.70

TEST_SMILES: O=C(Cc1cc(C(F)(F)F)cc2ncccc12)Nc1scc(Br)c1-c1nnc[nH]1
pIC50: 6.55

a. N#Cc1csc(NC(=O)CN2C(=O)CCc3ncccc32)c1-c1nccs1
b. O=C(CN1C(=O)CCc2ncccc21)Nc1scc(Br)c1-c1ncco1
c. O=C(Cc1cccc2ncc(C(F)(F)F)cc12)Nc1scc(Br)c1-c1nc[nH]n1
d. O=C(Cn1c(=O)ccc2ccc(OC(F)(F)F)cc21)Nc1scc(Br)c1-c1ncn[nH]1
e. N#Cc1ccc2c(ccc(=O)n2CC(=O)Nc2scc(Br)c2-c2ncn[nH]2)c1
Task: Arrange by pIC50, high to low. Answer by listing the labels in the requested order.
Result: e, b, a, d, c

1. N#Cc1csc(NC(=O)Cn2c(=O)ccc3cc(C(F)(F)F)ccc32)c1-c1cscn1
2. O=C(CN1C(=O)CCc2ncccc21)Nc1scc(Br)c1-c1nccs1
3. O=C(Cc1ccc(C(F)(F)F)c2ncccc12)Nc1scc(Cl)c1-c1ncn[nH]1
4. O=C(Cn1c(=O)ccc2c(C(F)(F)F)cccc21)Nc1scc(Br)c1-c1ncn[nH]1
5. Cn1cnc(-c2c(Br)csc2NC(=O)CN2C(=O)CCc3ncccc32)n1
Task: Arrange by pIC50, high to low. Answer by listing the labels in the requested order.
Result: 5, 1, 2, 4, 3
